Reference source: paper PMC8450086

Target: T1, KicGAS (Kaposi sarcoma-associated herpesvirus …, UniProt Q2HR80 1-131)
T1 sequence: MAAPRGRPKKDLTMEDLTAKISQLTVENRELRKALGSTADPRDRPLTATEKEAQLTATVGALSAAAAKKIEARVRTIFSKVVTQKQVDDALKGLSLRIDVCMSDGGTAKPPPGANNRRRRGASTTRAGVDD
Assay: fluorescence polarization; Hill n 2.33; EMSA: 20 mM Tris-HCl pH 7.4, 150 mM NaCl, 10% glycerol, on ice, 20 nM FAM-DNA, gel at 4 C; FP: 400 pg/ul FAM-DNA, buffer and temperature not stated; Hill fits
Settings: protein: recombinant; tags: Avi-His6-SUMO removed (tag-free); label: 5' FAM sense strand; blunt
readout: pKd
Just so you know, pKd here is -log10 of the concentration in molar units; reply with that number alone.

Form: binder = 0% GC (dsDNA) DNA 1: ATTTAATAATAATTTATTAT DNA 2: ATAATAAATTATTATTAAAT ; pKd = 6.10
